- System: multi-potent progenitors (MPPs)
- ASSAY EXPLANATION: MLTA, MPPs: concentration-response and QSP model fit
- Type: cell-based, human
- CONDITION DETAILS: Homo sapiens, 144 h; dose 500 nM, 6 days, normalized to vehicle control; read-out: MPPs normalized cell count
QUANTITY: activity at 0.5 µM (%)
Expressed in %, but write only the number.

Exam item: Answer with activity at 0.5 µM of "CC(=O)c1c(C)c2cnc(Nc3ccc(N4CCNCC4)cn3)nc2n(C2CCCC2)c1=O" measured for multi-potent progenitors (MPPs).
Marked response: 11

Exam item: Please report the measured activity at 0.5 µM for "CCc1cnn2c(NCc3ccc[n+]([O-])c3)cc(N3CCCC[C@H]3CCO)nc12" tested on multi-potent progenitors (MPPs).
Marked response: 2.67

Exam item: Identify measured activity at 0.5 µM obtained with multi-potent progenitors (MPPs) for "CC(=O)O[C@@]12CO[C@@H]1C[C@H](O)[C@@]1(C)C(=O)[C@H](O)C3=C(C)[C@@H](OC(=O)[C@H](O)[C@@H](NC(=O)OC(C)(C)C)c4ccccc4)C[C@@](O)([C@@H](OC(=O)c4ccccc4)[C@H]21)C3(C)C" .
Marked response: 2.03

Exam item: # return activity at 0.5 µM of O=C1CCC(N2C(=O)c3ccccc3C2=O)C(=O)N1 (stereo not shown) [thalidomide] (system: multi-potent progenitors (MPPs))
Marked response: 78.1

====

Can you tell me activity at 0.025 µM for the items I'm about to list?
- Test system: granulocyte progenitor (Gran-lin prog)
- ASSAY EXPLANATION: MLTA, GranP: concentration-response and QSP model fit
- Assay type: cell-based, human
- CONDITION DETAILS: Homo sapiens, 144 h; dose 25 nM, 6 days, normalized to vehicle control; read-out: GranPs normalized cell count
- Description: A custom optimized cytokine cocktail was developed using commercially available cytokines (Peprotech, New Jersey) to facilitate simultaneous multi-lineage differentiation and self-renewal of freeze-thawed primary human bone marrow-derived CD34+ cells in SFEM II media (cells and media from StemCell Technologies, Vancouver). […] Donor material was collected and cultured as described above. […] Following treatment, cell populations were measured using flow cytometry. […]
Write down the numeric answer in % and omit the unit.

Exam item: Specify the recorded activity at 0.025 µM for "CC(=O)O[C@@]12CO[C@@H]1C[C@H](O)[C@@]1(C)C(=O)[C@H](O)C3=C(C)[C@@H](OC(=O)[C@H](O)[C@@H](NC(=O)OC(C)(C)C)c4ccccc4)C[C@@](O)([C@@H](OC(=O)c4ccccc4)[C@H]21)C3(C)C" , system: granulocyte progenitor (Gran-lin prog).
Marked response: 0

Exam item: Please tell me the measured activity at 0.025 µM for "CC(=O)c1c(C)c2cnc(Nc3ccc(N4CCNCC4)cn3)nc2n(C2CCCC2)c1=O" ; system: granulocyte progenitor (Gran-lin prog).
Marked response: 73.4

Exam item: Quote granulocyte progenitor (Gran-lin prog) activity at 0.025 µM for entry "CCc1cnn2c(NCc3ccc[n+]([O-])c3)cc(N3CCCC[C@H]3CCO)nc12" .
Marked response: 31.7

Exam item: Report value only: activity at 0.025 µM, granulocyte progenitor (Gran-lin prog), "CN(C)C(=O)c1cc2cnc(Nc3ccc(N4CCNCC4)cn3)nc2n1C1CCCC1"
Marked response: 81.3

Exam item: Check granulocyte progenitor (Gran-lin prog) data and give activity at 0.025 µM for "CC(=O)O[C@H]1C(=O)[C@@]2(C)[C@H]([C@H](OC(=O)c3ccccc3)[C@]3(O)C[C@H](OC(=O)[C@H](O)[C@@H](NC(=O)c4ccccc4)c4ccccc4)C(C)=C1C3(C)C)[C@]1(OC(C)=O)CO[C@@H]1C[C@@H]2O" .
Marked response: 0.213

Exam item: Answer briefly: activity at 0.025 µM recorded on granulocyte progenitor (Gran-lin prog) for "CS(=O)(=O)N1CCN(Cc2cc3nc(-c4cccc5[nH]ncc45)nc(N4CCOCC4)c3s2)CC1"
Marked response: 84

Exam item: // output activity at 0.025 µM; input "CCN1CCN(Cc2ccc(Nc3ncc(F)c(-c4cc(F)c5nc(C)n(C(C)C)c5c4)n3)nc2)CC1" ; system granulocyte progenitor (Gran-lin prog)
Marked response: 52

Exam item: Under granulocyte progenitor (Gran-lin prog), report activity at 0.025 µM for O=C1CCC(N2C(=O)c3ccccc3C2=O)C(=O)N1 (centres unmarked) [thalidomide]
Marked response: 130
